# tgt: cynomolgus HER2 antigen (cynomolgus monkey)
# test.method.notes: SPR (ProteOn XPR36), IgG captured by anti-human Fc, soluble monovalent antigen, 1:1 fit
Please provide measured kon for the entries that follow.
Just the number in M⁻¹ s⁻¹, nothing appended.

-- ask Which kon is listed for chimeric anti-HER2 antibody 4384 (antibody, V domains shown, light chain entry is full length) VH: QVQLQQPGTELVKPGASVKLSCKASGYTFTSHWMHWVKQRPGQGLEWIGNINPSNGGTNYNEKFKSRATLTVDKASSTAYMQLSSLTSEDSAVYYCARAYYDFSWFVYWGQGTLVTVS VL: DIQMTQTSSSLSASLGDRVTISCRSSQDISNYLNWYQQKPDGTVKLLMYISRLHSGVPSRFSGSGSGTEYSLTISNLEQEDIATYFCQQGNTLPLTFGAGTKLELKR ?
-- reply 180000

-- ask Which kon is listed for humanized anti-HER2 antibody 11249 (antibody, V domains shown) VH: QVQLVQSGAEVKKPGASVKVSCKASGYTFTSHWMHWVRQAPGQGLEWMGNINPSSGGTNYNEKFKSRVTMTVDTSTSTVYMELSSLRSEDTAVYYCARAYYDFSWFVYWGQGTLVTVSS VL: DIQMTQSPSSLSASVGDRVTITCRSSQDISNYLNWYQQKPGKAPKLLMYISRLHSGVPSRFSGSGSGTDYTFTISSLQPEDIATYYCQQGNTLPLTFGGGTKVEIK ?
-- reply 150000

-- ask Which kon is listed for humanized anti-HER2 antibody 11145 (antibody, V domains shown) VH: EVQLVESGGGLVKPGGSLRLSCAASGFTFSSYGMSWVRQAPGKGLEWVATISGGGSYTYYPDSVKGRFTISRDIAKSSLYLQMNSLRAEDTAVYYCARKGNYGNYGKLAYWGQGTTVTVSS VL: DIQMTQSPSSLSASVGDRVTITCRASENIYSNLAWYQQKPGKAPKLLIYAATNLATGVPSRFSGSGSGTDYTLTISSLQPEDFASYYCQHFWGTPWTFGQGTKLEIK ?
-- reply 53000
